Listed compounds paired with reported Ratio Ki
Target: Monoamine transporters; serotonin & dopamine (Homo sapiens) (UniProt P31645+Q01959)
Sequence (P31645 whole entry, looked up, one chain of several): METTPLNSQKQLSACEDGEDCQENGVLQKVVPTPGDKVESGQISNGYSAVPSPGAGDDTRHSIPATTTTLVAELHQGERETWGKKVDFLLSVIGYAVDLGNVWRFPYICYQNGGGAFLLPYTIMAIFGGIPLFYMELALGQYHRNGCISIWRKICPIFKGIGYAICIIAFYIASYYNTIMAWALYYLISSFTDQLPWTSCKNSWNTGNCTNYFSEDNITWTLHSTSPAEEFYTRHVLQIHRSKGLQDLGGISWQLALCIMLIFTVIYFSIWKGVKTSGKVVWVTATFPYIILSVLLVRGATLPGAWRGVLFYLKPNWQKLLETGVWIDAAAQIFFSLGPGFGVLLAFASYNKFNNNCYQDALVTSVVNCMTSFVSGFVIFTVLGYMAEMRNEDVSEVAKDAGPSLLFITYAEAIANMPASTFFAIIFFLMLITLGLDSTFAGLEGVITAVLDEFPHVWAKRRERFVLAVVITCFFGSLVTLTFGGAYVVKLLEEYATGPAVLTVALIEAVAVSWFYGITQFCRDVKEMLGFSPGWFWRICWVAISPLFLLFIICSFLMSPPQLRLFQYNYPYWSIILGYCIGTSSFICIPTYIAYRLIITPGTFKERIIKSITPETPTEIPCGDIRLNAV
Experiment: Ratio for uptake of 5HT over DA
Format: protein assay
testReadout: Ratio Ki

>>> assayresult("C[C@@H](CCN1CCC(CCOC(c2ccc(F)cc2)c2ccc(F)cc2)CC1)c1ccccc1")
36
>>> assayresult("O[C@H](Cc1ccccc1)CN1CCC(CCOC(c2ccc(F)cc2)c2ccc(F)cc2)CC1")
24
>>> assayresult("O[C@H](CCc1ccccc1)CN1CCC(CCOC(c2ccc(F)cc2)c2ccc(F)cc2)CC1")
14
>>> assayresult("C[C@@H](Cc1ccccc1)CN1CCC(CCOC(c2ccc(F)cc2)c2ccc(F)cc2)CC1")
33
>>> assayresult("N[C@@H](Cc1ccccc1)CN1CCC(CCOC(c2ccc(F)cc2)c2ccc(F)cc2)CC1")
18
>>> assayresult("N[C@H](Cc1ccccc1)CN1CCC(CCOC(c2ccc(F)cc2)c2ccc(F)cc2)CC1")
13

----------
Readings of Ki for the listed compounds
Target: Sodium-dependent noradrenaline transporter (Homo sapiens)
Assay: Displacement of [3H]nisoxetine from NET
testReadout: Ki

>>> assayresult("C[C@@H](CCN1CCC(CCOC(c2ccc(F)cc2)c2ccc(F)cc2)CC1)c1ccccc1")
"340 nM"
>>> assayresult("Fc1ccc(C(OCCC2CCN(C[C@@H]3C[C@H]3c3ccccc3)CC2)c2ccc(F)cc2)cc1")
"947 nM"
>>> assayresult("O[C@@H](CCN1CCC(CCOC(c2ccc(F)cc2)c2ccc(F)cc2)CC1)c1ccccc1")
"440 nM"
>>> assayresult("O[C@@H](CCN1CCC(CCOC(c2ccccc2)c2ccccc2)CC1)c1ccccc1")
"210 nM"
>>> assayresult("O[C@H](Cc1ccccc1)CN1CCC(CCOC(c2ccccc2)c2ccccc2)CC1")
"785 nM"

----------
Molecular target: Sodium-dependent serotonin transporter (Homo sapiens)
Sequence (P31645 whole entry): as the sequence (P31645 whole entry, looked up, one chain of several) above
Experiment: Inhibition of [3H]5-HT uptake
Lab note - cut at 100 nM for Ki: Satisfied if strictly below, Not satisfied if not.

>>> category("N[C@H](Cc1ccccc1)CN1CCC(CCOC(c2ccc(F)cc2)c2ccc(F)cc2)CC1")
"Not satisfied"
>>> category("O[C@H](Cc1ccccc1)CN1CCC(CCOC(c2ccc(F)cc2)c2ccc(F)cc2)CC1")
"Satisfied"
>>> category("O[C@H](CCc1ccccc1)CN1CCC(CCOC(c2ccc(F)cc2)c2ccc(F)cc2)CC1")
"Satisfied"
>>> category("C[C@@H](CCN1CCC(CCOC(c2ccc(F)cc2)c2ccc(F)cc2)CC1)c1ccccc1")
"Satisfied"
>>> category("N[C@@H](Cc1ccccc1)CN1CCC(CCOC(c2ccc(F)cc2)c2ccc(F)cc2)CC1")
"Not satisfied"
>>> category("C[C@@H](Cc1ccccc1)CN1CCC(CCOC(c2ccc(F)cc2)c2ccc(F)cc2)CC1")
"Not satisfied"

----------
Target: Sodium-dependent noradrenaline transporter (Homo sapiens)
Test: Displacement of [3H]nisoxetine from NET
Measured Ki accompanies every entry in the list below.
testReadout: Ki (nM)

>>> assayresult("C[C@@H](Cc1ccccc1)CN1CCC(CCOC(c2ccc(F)cc2)c2ccc(F)cc2)CC1")
380
>>> assayresult("C[C@H](CCN1CCC(CCOC(c2ccc(F)cc2)c2ccc(F)cc2)CC1)c1ccccc1")
560
>>> assayresult("Fc1ccc(C(OCCC2CCN(CC3=Cc4ccccc4CC3)CC2)c2ccc(F)cc2)cc1")
43
>>> assayresult("O[C@@H](Cc1ccccc1)CN1CCC(CCOC(c2ccccc2)c2ccccc2)CC1")
485

----------
Each item that follows carries a reported Ki.
Molecular target: Sodium-dependent dopamine transporter (Homo sapiens, UniProt Q01959)
Sequence (Q01959 whole entry): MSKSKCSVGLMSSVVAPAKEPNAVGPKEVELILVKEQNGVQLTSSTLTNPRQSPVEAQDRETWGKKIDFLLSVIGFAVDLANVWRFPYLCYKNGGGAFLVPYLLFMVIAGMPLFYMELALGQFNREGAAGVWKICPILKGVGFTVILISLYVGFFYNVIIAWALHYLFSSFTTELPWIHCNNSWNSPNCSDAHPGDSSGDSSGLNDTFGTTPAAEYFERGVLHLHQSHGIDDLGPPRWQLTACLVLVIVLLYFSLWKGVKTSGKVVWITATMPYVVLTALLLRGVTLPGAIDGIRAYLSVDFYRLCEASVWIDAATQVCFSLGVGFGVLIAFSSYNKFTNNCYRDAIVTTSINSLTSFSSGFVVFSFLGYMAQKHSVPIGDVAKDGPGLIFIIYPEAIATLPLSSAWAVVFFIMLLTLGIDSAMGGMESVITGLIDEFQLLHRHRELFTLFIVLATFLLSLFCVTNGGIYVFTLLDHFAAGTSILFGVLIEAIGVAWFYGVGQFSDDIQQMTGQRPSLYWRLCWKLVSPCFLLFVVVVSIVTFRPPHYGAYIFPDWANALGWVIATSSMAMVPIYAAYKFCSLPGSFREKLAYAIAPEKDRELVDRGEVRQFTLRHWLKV
Assay: Inhibition of [3H]DA uptake
testReadout: Ki (nM)

>>> assayresult("O[C@H](Cc1ccccc1)CN1CCC(CCOC(c2ccc(F)cc2)c2ccc(F)cc2)CC1")
1.7
>>> assayresult("O[C@H](CCc1ccccc1)CN1CCC(CCOC(c2ccc(F)cc2)c2ccc(F)cc2)CC1")
1.4
>>> assayresult("C[C@@H](CCN1CCC(CCOC(c2ccc(F)cc2)c2ccc(F)cc2)CC1)c1ccccc1")
2.1
>>> assayresult("N[C@H](Cc1ccccc1)CN1CCC(CCOC(c2ccc(F)cc2)c2ccc(F)cc2)CC1")
17
>>> assayresult("N[C@@H](Cc1ccccc1)CN1CCC(CCOC(c2ccc(F)cc2)c2ccc(F)cc2)CC1")
13
>>> assayresult("C[C@@H](Cc1ccccc1)CN1CCC(CCOC(c2ccc(F)cc2)c2ccc(F)cc2)CC1")
3.8

----------
Overview of reported pKi across a group of compounds:
Molecular target: Sodium-dependent noradrenaline transporter (Homo sapiens, UniProt P23975)
Sequence (P23975 whole entry): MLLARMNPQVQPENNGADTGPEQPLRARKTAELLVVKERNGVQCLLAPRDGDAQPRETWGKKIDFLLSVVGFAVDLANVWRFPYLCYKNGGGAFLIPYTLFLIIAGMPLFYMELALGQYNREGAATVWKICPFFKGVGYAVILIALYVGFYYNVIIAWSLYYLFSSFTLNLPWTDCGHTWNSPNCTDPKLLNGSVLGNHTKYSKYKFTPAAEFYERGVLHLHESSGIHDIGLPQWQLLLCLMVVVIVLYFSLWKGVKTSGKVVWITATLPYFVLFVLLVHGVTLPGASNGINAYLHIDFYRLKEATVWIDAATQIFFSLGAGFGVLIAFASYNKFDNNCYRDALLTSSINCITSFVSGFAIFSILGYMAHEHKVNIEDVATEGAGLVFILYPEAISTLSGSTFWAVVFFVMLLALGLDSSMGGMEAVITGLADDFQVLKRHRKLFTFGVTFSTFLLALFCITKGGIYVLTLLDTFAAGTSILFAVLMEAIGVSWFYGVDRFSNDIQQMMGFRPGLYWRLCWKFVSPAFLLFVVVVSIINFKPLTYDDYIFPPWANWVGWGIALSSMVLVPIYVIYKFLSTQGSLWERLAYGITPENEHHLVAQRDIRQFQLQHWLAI
Assay: Inhibition of [3H]NE uptake
pKi: −log10 of the molar value.
testReadout: pKi

>>> assayresult("O[C@H](CCc1ccccc1)CN1CCC(CCOC(c2ccc(F)cc2)c2ccc(F)cc2)CC1")
7.10
>>> assayresult("C[C@@H](CCN1CCC(CCOC(c2ccc(F)cc2)c2ccc(F)cc2)CC1)c1ccccc1")
7.40
>>> assayresult("N[C@H](Cc1ccccc1)CN1CCC(CCOC(c2ccc(F)cc2)c2ccc(F)cc2)CC1")
6.40
>>> assayresult("O[C@H](Cc1ccccc1)CN1CCC(CCOC(c2ccc(F)cc2)c2ccc(F)cc2)CC1")
6.84
>>> assayresult("N[C@@H](Cc1ccccc1)CN1CCC(CCOC(c2ccc(F)cc2)c2ccc(F)cc2)CC1")
6.47
>>> assayresult("C[C@@H](Cc1ccccc1)CN1CCC(CCOC(c2ccc(F)cc2)c2ccc(F)cc2)CC1")
6.80

----------
Biological target: Sodium-dependent dopamine transporter (Homo sapiens, UniProt Q01959)
Assay: Displacement of [125I]RTI-55 from DAT
pKi: −log10 of the molar value.
Listed below: pKi values for each entry.
testReadout: pKi

>>> assayresult("C[C@H](CCN1CCC(CCOC(c2ccc(F)cc2)c2ccc(F)cc2)CC1)c1ccccc1")
8.66
>>> assayresult("O[C@H](CCN1CCC(CCOC(c2ccc(F)cc2)c2ccc(F)cc2)CC1)c1ccccc1")
9.10
>>> assayresult("O[C@@H](CCN1CCC(CCOC(c2ccccc2)c2ccccc2)CC1)c1ccccc1")
8.68
>>> assayresult("C[C@@H](Cc1ccccc1)CN1CCC(CCOC(c2ccc(F)cc2)c2ccc(F)cc2)CC1")
8.10
>>> assayresult("N[C@@H](Cc1ccccc1)CN1CCC(CCOC(c2ccc(F)cc2)c2ccc(F)cc2)CC1")
8.20
>>> assayresult("O[C@H](CCc1ccccc1)CN1CCC(CCOC(c2ccc(F)cc2)c2ccc(F)cc2)CC1")
8.68
>>> assayresult("O[C@@H](Cc1ccccc1)CN1CCC(CCOC(c2ccc(F)cc2)c2ccc(F)cc2)CC1")
9.40
>>> assayresult("O[C@@H](CCN1CCC(CCOC(c2ccc(F)cc2)c2ccc(F)cc2)CC1)c1ccccc1")
9.05
>>> assayresult("Fc1ccc(C(OCCC2CCN(C[C@H]3C[C@@H]3c3ccccc3)CC2)c2ccc(F)cc2)cc1")
8.85

----------
Assay: Selectivity for NET over DAT
Format: protein assay
Conditions: Homo sapiens
Entries annotated with measured Ratio Ki
testReadout: Ratio Ki

>>> assayresult("O[C@@H](CCc1ccccc1)CN1CCC(CCOC(c2ccc(F)cc2)c2ccc(F)cc2)CC1")
457
>>> assayresult("O[C@H](Cc1ccccc1)CN1CCC(CCOC(c2ccc(F)cc2)c2ccc(F)cc2)CC1")
240
>>> assayresult("N[C@H](Cc1ccccc1)CN1CCC(CCOC(c2ccc(F)cc2)c2ccc(F)cc2)CC1")
78
>>> assayresult("Fc1ccc(C(OCCC2CCN(C[C@@H]3C[C@H]3c3ccccc3)CC2)c2ccc(F)cc2)cc1")
1890
>>> assayresult("C[C@@H](CCN1CCC(CCOC(c2ccc(F)cc2)c2ccc(F)cc2)CC1)c1ccccc1")
259
>>> assayresult("C[C@H](Cc1ccccc1)CN1CCC(CCOC(c2ccc(F)cc2)c2ccc(F)cc2)CC1")
118
>>> assayresult("O[C@@H](CCN1CCC(CCOC(c2ccccc2)c2ccccc2)CC1)c1ccccc1")
101
>>> assayresult("N[C@@H](Cc1ccccc1)CN1CCC(CCOC(c2ccc(F)cc2)c2ccc(F)cc2)CC1")
135
>>> assayresult("O[C@H](CCN1CCC(CCOC(c2ccc(F)cc2)c2ccc(F)cc2)CC1)c1ccccc1")
394
>>> assayresult("Fc1ccc(C(OCCC2CCN(CC3=Cc4ccccc4CC3)CC2)c2ccc(F)cc2)cc1")
40
>>> assayresult("C[C@H](CCN1CCC(CCOC(c2ccc(F)cc2)c2ccc(F)cc2)CC1)c1ccccc1")
253
>>> assayresult("O[C@@H](CCN1CCC(CCOC(c2ccc(F)cc2)c2ccc(F)cc2)CC1)c1ccccc1")
515
>>> assayresult("O[C@@H](Cc1ccccc1)CN1CCC(CCOC(c2ccc(F)cc2)c2ccc(F)cc2)CC1")
902
>>> assayresult("O[C@@H](Cc1ccccc1)CN1CCC(CCOC(c2ccccc2)c2ccccc2)CC1")
359
>>> assayresult("O[C@H](Cc1ccccc1)CN1CCC(CCOC(c2ccccc2)c2ccccc2)CC1")
114
>>> assayresult("C[C@@H](Cc1ccccc1)CN1CCC(CCOC(c2ccc(F)cc2)c2ccc(F)cc2)CC1")
47
>>> assayresult("O[C@H](CCc1ccccc1)CN1CCC(CCOC(c2ccc(F)cc2)c2ccc(F)cc2)CC1")
215
>>> assayresult("Fc1ccc(C(OCCC2CCN(C[C@H]3C[C@@H]3c3ccccc3)CC2)c2ccc(F)cc2)cc1")
256
